Recorded values, source patent US20100029619A1.

Measured melting point by item
Counter-ions that a name gives are not always drawn.
experimental_endpoint: melting point

Cn1cc(-c2ccc3nc(NC(=O)c4ccc(C(C)(C)C)cc4)cn3n2)cn1 | 245 to 246 °C
CC(C)(C)c1ccc(C(=O)Nc2cn3ccccc3n2)cc1 | 230 to 231 °C
CC(C)(CNC(=O)Cc1cnc[nH]1)c1ccc(C(=O)Nc2cn3cc(Cl)ccc3n2)cc1 | 270 °C (dec.)
CC(C)(C)c1ccc(C(=O)Nc2cn3nc(NCc4cccnc4)ccc3n2)cc1 | 232 to 233 °C
COC(=O)C(C)(C)c1ccc(C(=O)Nc2cn3cc(-c4ccsc4)ccc3n2)cc1 | 200 to 201 °C
CC(C)(C)c1ccc(C(=O)Nc2cn3nc(-n4cnc(CO)c4)ccc3n2)cc1 | 298 to 301 °C
CC(C)(C)c1ccc(C(=O)Nc2cn3nc(-n4ccnc4)ccc3n2)cc1 (as salt: hydrochloride) [Example 141, dihydrochloride] | 298 to 300 °C
CC(C)(C)c1ccc(C(=O)Nc2cn3nc(NCc4ccncc4)ccc3n2)cc1 | 222 to 223 °C

###

Measured melting point, listed per entry.
experimental_endpoint: melting point

CC(C)(C)c1ccc(C(=O)Nc2cn3cc(-n4cncn4)ccc3n2)cc1 | 274 to 276 °C
O=C(Nc1cn2cc(Cl)ccc2n1)c1ccc(C2(C(=O)O)CCC2)cc1 | 317.7 °C (dec.)
CC(C)(C)c1ccc(C(=O)Nc2cn3cc(C#N)ccc3n2)cc1 | 300 to 301 °C
CC(C)(CNC(=O)c1ncc[nH]1)c1ccc(C(=O)Nc2cn3cc(C(F)(F)F)ccc3n2)cc1 | 292 to 293 °C

###

experimental_endpoint: melting point

CC(C)(CO)c1ccc(C(=O)Nc2cn3cc(C(F)(F)F)ccc3n2)cc1 | 227 to 229 °C
Cn1cc(-c2ccc3nc(NC(=O)c4ccc(C(C)(C)C)nc4)cn3c2)cn1 | 228 to 230 °C
CCC(=O)NC(C)(C)c1ccc(C(=O)Nc2cn3cc(Cl)ccc3n2)cc1 | 249 to 252 °C
CN1CCC(Nc2ccc3nc(NC(=O)c4ccc(C(C)(C)C)cc4)cn3n2)CC1 | 275 to 277 °C
Cc1cccc2nc(NC(=O)c3ccc(C4(C(=O)O)CCC4)cc3)cn12 | 272 °C
CC(C)(C)c1ccc(C(=O)Nc2cn3nc(NC4CC4)ccc3n2)cc1 | 274 to 275 °C
CC(C)(C)c1ccc(C(=O)Nc2cn3cc(-c4ccsc4)ccc3n2)cc1 | 261 to 263 °C
CC(C)(C(=O)O)c1ccc(C(=O)Nc2cn3cc(Cl)ccc3n2)cc1 | 311 to 313 °C
CN(C)Cc1ccc2nc(NC(=O)c3ccc(C(C)(C)C)cc3)cn2c1 | 236 to 237 °C
CC(C)(CCO)c1ccc(C(=O)Nc2cn3cc(-n4ccnc4)ccc3n2)cc1 | 225 to 227 °C
COC(=O)C(C)(C)c1ccc(C(=O)Nc2cn3cc(C)ccc3n2)cc1 | 228 to 230 °C
CC(C)(CCC#N)c1ccc(C(=O)Nc2cn3cc(Cl)ccc3n2)cc1 | 198 to 199 °C
CC(C)(C)c1ccc(C(=O)Nc2cn3nc(-c4cnn(CCO)c4)ccc3n2)cc1 | 226 to 229 °C
CC(C)c1ncc(-c2ccc3nc(NC(=O)c4ccc(C(C)(C)C)cc4)cn3n2)[nH]1.Cl | 304 to 305 °C (dec.)
CC(C)(CC(=O)O)c1ccc(C(=O)Nc2cn3cc(Cl)ccc3n2)cc1 | 304 to 306 °C (dec.)
COC(=O)C(C)(C)c1ccc(C(=O)Nc2cn3cc(I)ccc3n2)cc1 | 234 to 235 °C
CC(C)(C)c1ccc(C(=O)Nc2cn3cc(C(F)(F)F)ccc3n2)cc1 | 234 to 235 °C
COC(=O)C(C)(C)c1ccc(C(=O)Nc2cn3cc(-c4ccoc4)ccc3n2)cc1 | 202 to 203 °C
